Cited source: ChEMBL document CHEMBL3988442

- System: Wolbachia pipientis
- test.method.notes: Anti-Wolbachia Cell-Based Screen
- Format: functional
- Design: scale not given: in the data most compounds retested in dose-response had high values
- run.parameters: 5 µM
About 13,000 (27%) of roughly 48,000 compounds showed an effect of 50% or more. Some of the results follow.
Give measured Percent Effect for each item. Keep answers brief.
One number for each entry, in %.

Value sought for every listed compound: Percent Effect.
1. O=C(O)C(F)(F)F.O=C(O)C(F)(F)F.O=C1CC(c2ccncc2)C2(CCN(CC3CC3)CC2)N1 (stereo not drawn)
2. CCCS(=O)(=O)N1CCO[C@H]2[C@H](OCc3ccccn3)CC[C@@H]21.O=C(O)C(F)(F)F
3. COCCCN1CC2(CCN(C(=O)c3ccc(=O)n(C)c3)CC2)CC1=O
4. CC(NC1(CNC(=O)CC2CCCC2)CCOCC1)c1ccccc1 (stereo not drawn)
5. CCCn1cc(NC(=O)c2cccc(CN3CC=CC3)c2)nn1
6. Cc1noc(C)c1NS(=O)(=O)c1cc(C(=O)O)cc(Cl)c1Cl
7. O=C(NCCNc1ncccn1)C1CCCC1
8. CN1CC2(CCN(C(=O)c3ccc4nonc4c3)CC2)CC1=O

[90.78, -14.38, 118.9, -11.89, -66.35, 3.53, 120, -11.27]

====

- System: Wolbachia pipientis
- test.method.notes: Anti-Wolbachia Cell-Based Screen
- Format: functional
- Design: scale not given: in the data most compounds retested in dose-response had high values
- run.parameters: 5 µM
The whole screen tested about 48,000 compounds, of which about 13,000 (27%) showed an effect of 50% or more. This is one part of the list.
Give measured Percent Effect for each item. Keep answers brief.
Answers are plain numbers, in %.

# compound, reported.endpoint, endpoint.result
rows = [
    ("O=C(Nc1ccc(F)cc1)NC1(CCO)CCOCC1", "Percent Effect", -10.62),
    ("Cc1cccc(OCCCNC(=O)NC(C)c2nncn2C)c1 (centres undefined)", "Percent Effect", 6.947),
    ("Cn1ccc2c(C(=O)N3CCC4(CCOC4)C3)cccc21 (centres undefined)", "Percent Effect", -11.85),
    ("Cc1ccc(N2CCCN(C(=O)c3cccc4c3ccn4C)CC2)nn1", "Percent Effect", -26.18),
    ("Cc1cccc(OCCNC(=O)Cn2ccc(C)cc2=O)c1", "Percent Effect", 104.8),
    ("C[C@@H]1CN(S(=O)(=O)N2CCCCCC2)C[C@@]1(O)C1CCC1", "Percent Effect", 19.36),
    ("Cc1cc(C(=O)N2CCc3c(CN(C)C)nn(C)c3C2)[nH]n1", "Percent Effect", 109.1),
    ("CC(=O)N(C)C1CCN(C(=O)c2cccc3c2ccn3C)CC1", "Percent Effect", 129.7),
]

Value sought for every listed compound: Percent Effect.
1. Cc1cc(C)n(-c2cncc(N3CCN(C(=O)C(C)(C)C)CC3)n2)n1
2. Cn1ccc2c(C(=O)NCCCN3CCCC3)cccc21

1: 6.121; 2: 7.133

Value sought for every listed compound: Percent Effect.
1. CC(NC(=O)NCCCOc1ccccc1F)c1nncn1C (centres undefined)
2. COc1ccccc1CC(NC(=O)N1CCC[C@@H]1CO)C(C)C (some centres undefined)
3. O=C(c1cscn1)N1CCC2(CCCN(CCOc3ccccc3)C2)C1 (centres undefined)
4. CSc1ccc(-n2ccnc2-c2cc3n(n2)CCNC3)cc1
5. Cc1nn(C(C)(C)C)c(=O)n1CC(=O)NCC(F)(F)F
6. Cn1ccc2c(C(=O)N3CCN(C(=O)C4CCCC4)CC3)cccc21

6.488
-5.452
112
-5.547
1.676
117.3

====

- Tested on: Wolbachia pipientis
- test.method.notes: Anti-Wolbachia Cell-Based Screen
- Format: functional
- Set-up: scale not given: in the data most compounds retested in dose-response had high values
- run.parameters: 5 µM
About 13,000 (27%) of roughly 48,000 compounds showed an effect of 50% or more. The list shows a part of the results.
reported.endpoint: Percent Effect (%)
One number for each entry, in %.

Some compounds with known Percent Effect results, for comparison:
# compound, study.system, reported.endpoint, endpoint.result
measured = [
    ("Cl.Fc1ccc(CN2CCC(c3n[nH]c4ncccc34)CC2)cc1F", "Wolbachia pipientis", "Percent Effect", 3.09),
    ("CC(C1CCN(Cc2ccc(OC(F)F)cc2)CC1)N1CCOCC1 (stereo unspecified)", "Wolbachia pipientis", "Percent Effect", 6.94),
    ("Fc1cccc(Cl)c1CN1CCC(c2n[nH]c3ncccc23)CC1", "Wolbachia pipientis", "Percent Effect", 100.4),
    ("N#Cc1ncn(CCC(=O)Nc2ccccc2F)n1", "Wolbachia pipientis", "Percent Effect", 141.3),
    ("N#Cc1ncn(CCS(=O)(=O)c2ccc(Br)cc2)n1", "Wolbachia pipientis", "Percent Effect", 14.03),
]

Please find the next compound below.
Need Percent Effect of CC(C)Oc1cccc(CN2CCC(C(C)N3CCOCC3)CC2)c1 (stereo unspecified) , thanks.
8.799

====

- System: Wolbachia pipientis
- test.method.notes: Anti-Wolbachia Cell-Based Screen
- Type: functional
- Parameters: scale not given: in the data most compounds retested in dose-response had high values
- run.parameters: 5 µM
Hit rate of the full screen: of about 48,000 compounds, about 13,000 (27%) showed an effect of 50% or more. The list shows a part of the results.
Give measured Percent Effect for each item. Keep answers brief.
One number for each entry, in %.

# molecule, unit.annotation, endpoint.result
rows = [
    ("CN(C)S(=O)(=O)N1CCN(c2ccnc(N3CCCC3)n2)CC1", "%", 6.981),
    ("CC(c1cccnc1)N1CCN(C(=O)NCc2cnn(C)c2)CC1 (stereo unspecified)", "%", -9.128),
    ("O=C(CCN1CCCN(c2nccs2)CC1)NCC1CCCCC1", "%", -7.888),
    ("CN(CC(N)=O)C(=O)c1cnc(-c2ccc(Cl)s2)s1", "%", 2.419),
    ("CCCS(=O)(=O)NCC(C)c1ccc(F)c(F)c1 (stereo unspecified)", "%", -6.211),
]

Value sought for every listed molecule: Percent Effect.
1. CC(Cc1ccsc1)NC(=O)c1cc(N2CCNC2=O)ccc1F (stereo unspecified)
2. Cc1nc(C2CCCN(C(=O)CCCn3cccn3)C2)no1 (stereo unspecified)
3. CN(C)S(=O)(=O)N1CCN(Cc2ccnc(N3CCCC3)n2)CC1
4. Cc1nc(CN(C)C(=O)C2CC(=O)N(c3cccc(O)c3)C2)cs1 (stereo unspecified)

1: -0.338; 2: 10.77; 3: 116.4; 4: -3.806

Value sought for every listed molecule: Percent Effect.
1. CC(C)c1nc(C2CCCN(C(=O)CS(=O)(=O)C(C)C)C2)no1 (stereo unspecified)
2. CC(C)c1nc(C2CCCN(C(=O)CCc3cscn3)C2)no1 (stereo unspecified)

1. -11.89
2. 114.7

====

- Test system: Wolbachia pipientis
- test.method.notes: Anti-Wolbachia Cell-Based Screen
- Type: functional
- Set-up: scale not given: in the data most compounds retested in dose-response had high values
- run.parameters: 5 µM
Among all 48,000 compounds or so, about 13,000 (27%) showed an effect of 50% or more. This is one part of the list.
reported.endpoint: Percent Effect

# compound, endpoint.result
data = [
    ("COc1c(C2CCCN2Cc2nc(-c3ccco3)no2)c(C)nn1C (configuration not stated)", "131.1%"),
    ("Cc1nc(-c2cccc(N3CCC(NC4CCSC4)CC3)c2)cs1 (configuration not stated)", "-11.84%"),
    ("CN(C)S(=O)(=O)N1C[C@@H]2COC[C@]2(COc2ccccn2)C1.O=C(O)C(F)(F)F", "82.39%"),
    ("COc1cc(N2C[C@@H]3COC[C@]3(COc3ccccn3)C2)ncn1.O=C(O)C(F)(F)F.O=C(O)C(F)(F)F", "106%"),
    ("CC(C)n1cnnc1CNC(=O)CCCOc1ccccc1Cl", "-21.75%"),
]

Value sought for every listed compound: Percent Effect.
1. Fc1cnc(N2CCC3(COCc4cnc(NCC5CC5)nc43)C2)nc1 (configuration not stated)
2. Cc1ccc(CNCC2CCc3nnc(C(C)C)n3C2)s1 (configuration not stated)
3. O=C(C1CC1)N1CCC2(COCc3cnc(NCc4ccco4)nc32)C1 (configuration not stated)
4. Fc1cccc(-c2c[nH]c([C@@H]3COCCN3C3CCOCC3)n2)c1
5. CN1CCN(Cc2ccccc2CNC(=O)c2ccc(Cl)cc2F)CC1
6. COc1cc(N2C[C@@H]3COC[C@]3(C(=O)NCc3ccccn3)C2)ncn1

3.153%
-11.01%
107.6%
5.513%
-10.17%
-14.4%

Value sought for every listed compound: Percent Effect.
1. CC(C)[C@H]1CN(Cc2ccncc2)C[C@@H]1NC(=O)C1(C#N)CCOCC1
2. COc1cc(N2C[C@@H]3COC[C@]3(C(=O)NC3CC(F)(F)C3)C2)ncn1.O=C(O)C(F)(F)F

["101.3%", "12.94%"]
